Test system: HPPD polypeptides
Assay: coupled HPPD activity assay: turnover and residual turnover in crude extracts
Type: biochemical, Pseudomonas fluorescens
Details: presence of 100 μM Cmpd. 1; high substrate concentration; changes in absorbance (OD) at 320 nm
Readout kind: Residual turnover
// print number alone

Fill in: Residual turnover of 12 (protein, mutant HPPD polypeptide) MADLYENPMGLMGFEFIEFASPTPGTLEPIFEIMGFTKVATHRSKNVHLYRQGEINLILNNEPNSIASYFAAEHGPSVCGMAFRVKDSQKAYNRALELGAQPIHIDTGPMELNLPAIKGIGGAPLYLIDRFGEGSSIYDIDFVYLEGVERNPVGAGLKVIDHLTHNVYRGRMVYWANFYEKLFNFREARYFDIKGEYTGLTSKAMSAPDGMIRIPLNEESSKGAGQIEEFLMQFNGEGIQHVAFLTDDLVKTWDALKKIGMRFMTAPADNYYEMLEGRLPDHGEPVDQLQARGILLDGSSVEGDKRLLLQIFSETLMGPVFFEFIQRKGDDGFGPDSFKVLFESVERDQVRRGVLTAD is ___
0.058

And 10 (protein, mutant HPPD polypeptide) MADLYENPMGLMGFEFIEFASPTPGTLEPIFEIMGFTKVATHRSKNVHLYRQGEINLILNNEPNSIASYFAAEHGPSVCGMAFRVKDSQKAYNRALELGAQPIHIDTGPMELNLPAIKGIGGAPLYLIDRFGEGSSIYDIDFVYLEGVERNPVGAGLKVIDHLTHNVYRGRMVYWANFYEKLFNFREARYFDIKGEYTGLTSKAMSAPDGMIRIPLNEESSKGAGQIEEFLMQFNGEGIQHVAFLTDDLVKTWDALKKIGMRFMTAPGDTYYEMLEGRLPDHGEPVDQLQARGILLDGSSVEGDKRLLLQIFSETLMGPVFFEFIQRKGDDGFGPDSFKVLFESVERDQVRRGVLTAD ?
0.070
